MEASURED ON: UniProt:P02768
Sequence (P02768 whole entry): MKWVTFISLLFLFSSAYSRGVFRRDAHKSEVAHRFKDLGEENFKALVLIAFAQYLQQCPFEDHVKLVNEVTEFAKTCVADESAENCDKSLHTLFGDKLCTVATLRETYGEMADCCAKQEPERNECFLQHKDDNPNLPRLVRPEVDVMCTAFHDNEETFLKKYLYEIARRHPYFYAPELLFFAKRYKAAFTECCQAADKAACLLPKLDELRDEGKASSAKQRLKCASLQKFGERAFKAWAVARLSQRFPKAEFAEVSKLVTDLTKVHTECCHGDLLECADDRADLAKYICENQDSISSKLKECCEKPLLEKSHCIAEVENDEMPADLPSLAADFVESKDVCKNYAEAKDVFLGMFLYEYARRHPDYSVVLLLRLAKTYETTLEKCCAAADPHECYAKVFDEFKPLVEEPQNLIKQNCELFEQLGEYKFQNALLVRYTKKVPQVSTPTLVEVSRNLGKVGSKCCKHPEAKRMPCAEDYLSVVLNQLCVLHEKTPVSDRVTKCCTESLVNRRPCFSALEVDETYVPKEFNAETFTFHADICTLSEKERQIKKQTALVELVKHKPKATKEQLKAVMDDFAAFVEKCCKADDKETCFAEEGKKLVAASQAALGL
ASSAY EXPLANATION: Binding affinity to human serum albumin assessed as remaining parent compound at 3 mM measured up to 24 hrs by RP-HPLC analysis
Assay type: ADME, cell-free
CONDITIONS USED: read-out: Activity
Bridge positions count the residues as written; N and C are the ends. Peptide text beside a SMILES is read from it.
ATTRIBUTE MEASURED: remaining at 24 h, 3000 µM (%)
Lab book: enter the figure in %, no units written.

Lab note: need remaining at 24 h, 3000 µM for `CC[C@H](C)[C@H](NC(=O)[C@@H](NC(=O)[C@@H](N)Cc1ccccc1)[C@H](C)O)C(=O)N[C@@H](Cc1ccc(O)cc1)C(=O)N1CCC[C@H]1C(=O)NCC(=O)N[C@H]1CSSC[C@@H](C(=O)O)NC(=O)[C@H](Cc2ccccc2)NC(=O)[C@H](CC(C)C)NC(=O)CNC(=O)[C@H](Cc2c[nH]cn2)NC1=O` on UniProt:P02768, anyone have it? 85

And CC[C@H](C)[C@@H]1NC(=O)[C@H](CC(C)C)NC(=O)CNC(=O)[C@H](Cc2ccccc2)NC(=O)[C@@H]2CCCN2C(=O)[C@H]([C@@H](C)O)NC(=O)[C@H](Cc2ccc(O)cc2)NC(=O)[C@H](Cc2c[nH]cn2)NC(=O)[C@@H](NC(=O)CN)CSSC[C@@H](C(=O)N[C@@H](Cc2ccccc2)C(=O)O)NC1=O (H-GCHYTPFGLICF-OH; disulfide 2-11) ? 3
